experiment: clinical; settings: human, in vivo
measure name: clearance (mL/min)
Hi! Could you send only the number? It should be in mL/min, unit omitted.

I would be grateful if you could share the reported clearance for CCCCCCCCCC(=O)N[C@@H](Cc1c[nH]c2ccccc12)C(=O)N[C@H](CC(N)=O)C(=O)N[C@@H](CC(=O)O)C(=O)N[C@@H]1C(=O)NCC(=O)N[C@@H](CCCN)C(=O)N[C@@H](CC(=O)O)C(=O)N[C@H](C)C(=O)N[C@@H](CC(=O)O)C(=O)NCC(=O)N[C@H](CO)C(=O)N[C@@H]([C@H](C)CC(=O)O)C(=O)N[C@@H](CC(=O)c2ccccc2N)C(=O)O[C@@H]1C [Daptomycin] .
10.6

Value source: paper PMC9311615
